Target: Coagulation factor XI (Homo sapiens)
Sequence (P03951 19-387 limits assumed): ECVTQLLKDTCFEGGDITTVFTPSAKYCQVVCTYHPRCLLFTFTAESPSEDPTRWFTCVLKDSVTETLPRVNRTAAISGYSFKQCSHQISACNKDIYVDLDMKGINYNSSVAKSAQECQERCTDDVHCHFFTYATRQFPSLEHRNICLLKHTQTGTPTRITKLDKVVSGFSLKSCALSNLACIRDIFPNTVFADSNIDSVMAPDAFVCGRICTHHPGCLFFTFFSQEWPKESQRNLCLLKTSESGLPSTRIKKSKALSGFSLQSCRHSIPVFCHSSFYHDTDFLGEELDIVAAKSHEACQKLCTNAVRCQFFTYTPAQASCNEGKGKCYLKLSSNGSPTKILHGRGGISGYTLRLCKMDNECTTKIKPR
Sequence (P03951 388-625 limits assumed): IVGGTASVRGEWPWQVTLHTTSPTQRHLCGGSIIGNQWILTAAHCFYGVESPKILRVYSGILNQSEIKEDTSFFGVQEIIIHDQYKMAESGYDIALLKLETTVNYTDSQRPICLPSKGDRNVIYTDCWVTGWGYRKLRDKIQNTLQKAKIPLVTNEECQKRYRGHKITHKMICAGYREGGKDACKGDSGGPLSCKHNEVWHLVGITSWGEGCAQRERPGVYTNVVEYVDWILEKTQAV
Assay: Inhibition of human coagulation factor 11a using p-nitroaniline as substrate assessed as substrate hydrolysis by spectrophotometrically
pKi: −log10 of the molar value.
Quantity: pKi

Compound: NC[C@H]1CC[C@H](C(=O)N[C@@H](Cc2ccccc2)c2nc(-c3ccc(C(N)=O)cc3)c[nH]2)CC1.O=C(O)C(F)(F)F
pKi: 7.52
--
Compound: NC[C@H]1CC[C@H](C(=O)N[C@@H](Cc2ccccc2)c2nc(-c3ccc(CC(N)=O)cc3)c[nH]2)CC1 (mixture of isomers)
pKi: 6.40
--
Compound: NC[C@H]1CC[C@H](C(=O)N[C@@H](Cc2ccccc2)c2nc(-c3ccccc3)c[nH]2)CC1.O=C(O)C(F)(F)F
pKi: 6.92
--
Compound: NC[C@H]1CC[C@H](C(=O)N[C@@H](Cc2ccccc2)c2nc(-c3ccc(S(N)(=O)=O)cc3)c[nH]2)CC1
pKi: 5.87
--
Compound: NC[C@H]1CC[C@H](C(=O)N[C@@H](Cc2ccccc2)c2nn(-c3ccccc3)c(=O)[nH]2)CC1
pKi: 5.51

1 = NC[C@H]1CC[C@H](C(=O)N[C@@H](Cc2ccccc2)c2ncc(-c3ccccc3)o2)CC1
2 = NC[C@H]1CC[C@H](C(=O)N[C@@H](Cc2ccccc2)c2nc(-c3ccc4c(N)n[nH]c4c3)c(F)[nH]2)CC1.O=C(O)C(F)(F)F
Of 1 versus 2 , which is the one with smaller reported pKi? Answer = label.
1

// provenance: ChEMBL document CHEMBL3351269
